test system: S. epidermidis ATCC 12228; assay: MIC determination (NCCLS broth microdilution), S. epidermidis; assay type: cell-based; conditions: lowest concentration with >=80% inhibition; 24 h at 34° C.
assay readout: MIC S. epidermidis ATCC 12228 (µg/mL)

Solved cases (5 shown):
Ask: Can you look up the measured MIC S. epidermidis ATCC 12228 of CC(=O)Nc1ccc(O)c(C(=O)OB(c2cccc(Cl)c2)c2cccc(Cl)c2)n1 for me?
Result: 8

Ask: Can you look up the measured MIC S. epidermidis ATCC 12228 of Cc1ccc(B(OC(=O)c2ncccc2O)c2ccc(C)c(Cl)c2)cc1Cl for me?
Result: 1

Ask: Can you look up the measured MIC S. epidermidis ATCC 12228 of Cc1cc(Cl)ccc1B(OC(=O)c1ncccc1O)c1ccc(Cl)cc1C for me?
Result: 0.25

Ask: Can you look up the measured MIC S. epidermidis ATCC 12228 of O=C(OB(c1ccc(Cl)cc1F)c1c(Cl)ccc(Br)c1F)c1ncccc1O for me?
Result: 1

Ask: Can you look up the measured MIC S. epidermidis ATCC 12228 of Cc1ccc(B(OC(=O)c2ncccc2C(=O)O)c2ccc(C)cc2Cl)c(Cl)c1 for me?
Result: 4

(a) COc1ccc(Cl)cc1B(OC(=O)c1ncccc1O)c1cccc(Cl)c1
(b) Cc1ccc(B(CCc2ccccc2)OC(=O)c2ncccc2O)cc1Cl
Ask: Parameter metric = MIC S. epidermidis ATCC 12228. Return the lower-valued option from a and b . Return value: the label identifying the chosen record.
Result: b
